# System: T. mentagrophytes ATCC18748
# measurement-notes: Measurement of antifungal activity (MIC, WST8 growth inhibition)
# Type: cell-based
# particulars: Trichophyton mentagrophytes, 72 h; 80% growth inhibition concentration; T. mentagrophytes ATCC18748, RPMI1640/MOPS, 28° C., 3 days
Below, each entry is listed alongside its reported inhibition of growth at 32 µg/mL.
measured-endpoint: inhibition of growth at 32 µg/mL

1. Cc1cc(C)n(-c2cccc(C)c2O)n1 [Example 51] | < 50%
2. CC(C)(C)c1cc(N)n(-c2ccccc2O)n1 [Example 10] | 50 to 80%
3. Cc1cc(C)n(-c2c(C)cccc2O)n1 [Example 46] | < 50%
4. Cc1ccc(O)c(-n2nc(C)cc2C)c1 [Example 49] | < 50%
5. Cc1cc(C)n(-c2c(O)cccc2O)n1 [Example 43] | < 50%
6. Cc1cc(C)n(-c2c(N)cccc2O)n1 [Example 36] | < 50%
7. Cc1nn(-c2ccc(C(=O)O)cc2O)c(C)c1C [Example 40] | < 50%
8. Cc1nn(-c2ccc(C(N)=O)cc2O)c(C)c1C [Example 41] | 50 to 80%

###

T. rubrum ATCC10218 measurements of MIC, listed per entry.
Structures can show the parent of a compound that is named as a salt.
measured-endpoint: MIC

1) Cc1nn(-c2cc(F)ccc2O)c(C)c1C [Example 20] | 32 to 64 µg/mL
2) Cc1cc(C)n(-c2ccc(CO)cc2O)n1 [Example 47] | 4 to 16 µg/mL
3) CC(=O)Oc1ccc(-n2nc(C)c(C)c2C)c(O)c1 [Example 59] | 4 to 16 µg/mL
4) Cc1cc(C)n(-c2ccc(Cl)cc2O)n1 [Example 26] | ≤ 2 µg/mL
5) Cc1cc(C)n(-c2c(N)cccc2O)n1 [Example 36] | 32 to 64 µg/mL
6) Cc1nn(-c2ccc(F)cc2O)c(C)c1C [Example 18] | 4 to 16 µg/mL
7) CC(=O)Oc1ccc(-n2nc(C)cc2C)c(O)c1 [Example 57] | 4 to 16 µg/mL
8) Cc1cc(C)n(-c2cccc(O)c2O)n1 [Example 15] | 16 to 32 µg/mL
9) Cc1nn(-c2ccc(C(=O)O)cc2O)c(C)c1C [Example 40] | 32 to 64 µg/mL
10) CCc1ccc(-n2nc(C)cc2C)c(O)c1 [Example 52] | ≤ 2 µg/mL
11) Cc1cc(C)n(-c2ccccc2O)n1 [Example 1, 2-(3,5-Dimethyl-1H-pyrazol-1-yl)phenol] | 4 to 16 µg/mL
12) Cc1cc(C)n(-c2c(C)cccc2O)n1 [Example 46] | 32 to 64 µg/mL
13) Cc1nn(-c2ccc(Br)cc2O)c(C)c1Cl [Example 55] | ≤ 2 µg/mL
14) Cc1cc(C)n(-c2ccc([N+](=O)[O-])cc2O)n1 [Example 28] | 16 to 32 µg/mL
15) Cc1cc(C)n(-c2ccc(C(F)(F)F)cc2O)n1 [Example 50] | 4 to 16 µg/mL
16) Cc1nn(-c2ccc(C(N)=O)cc2O)c(C)c1C [Example 41] | 32 to 64 µg/mL
17) Cc1ccnn1-c1ccccc1O [Example 8, 2-(5-Methyl-1H-pyrazol-1-yl)phenol] | > 64 µg/mL
18) CC(C)(C)c1cc(N)n(-c2ccccc2O)n1 [Example 10] | > 64 µg/mL
19) CCC(C)(C)c1ccc(CC(C)CN2C[C@@H](C)O[C@@H](C)C2)cc1 (some centres unmarked) [Amorolfine hydrochloride, reference compound] | ≤ 2 µg/mL
20) CN(C/C=C/C#CC(C)(C)C)Cc1cccc2ccccc12 [Terbinafine hydrochloride, reference compound] | ≤ 2 µg/mL

Reference source for all entries: patent US8889727B2
